- MEASUREMENT_NOTES: Primary qHTS for delayed death inhibitors of the malarial parasite plastid, 96 hour incubation
- STATED_CONDITIONS: P. falciparum luciferase reporter growth; series mostly up to 28.7 µM
Hit rate of the full screen: of about 320,000 compounds, about 22,000 (6.9%) were called active. Inconclusive results (about 27%) are left out. The call rests on the fitted dose curve; in most records, active means well fitted inhibition curve with a large enough effect; inconclusive means small, poorly fitted or top-dose-only effect, or another doubt; inactive means no such curve, though single readings can be large or run the other way. What follows is part of a selection rich in actives, with near analogues and random picks from the rest.
Classes used: active, inactive

ITEM_SMILES | QUALITATIVE_LABEL
O=C(Nc1ccc(-n2cccn2)cc1)C1CCN(Cc2ccsc2)CC1 | inactive
O=C(CCC(=O)c1ccccc1)NCc1cccc(C(F)(F)F)c1 | inactive
COc1ccc(-c2sc3ccc(OC)cc3c2C#Cc2ccccn2)cc1 | active
COc1ccc(-c2csc(Nc3ccccn3)n2)cc1 | inactive
S=C(Nc1ccc(Br)cc1)NC1CCN(Cc2ccccc2)CC1 | inactive
Cc1ccc(-c2nn(C(C)(C)C)c3ncnc(N)c23)cc1 | active
